# target-or-system: αv /β3 receptor (Homo sapiens, UniProt P05106+P06756)
# Construct: The αv /β3 receptor was isolated from human placental extracts prepared using octylglucoside
# Sequence (P06756 31-889 limits assumed): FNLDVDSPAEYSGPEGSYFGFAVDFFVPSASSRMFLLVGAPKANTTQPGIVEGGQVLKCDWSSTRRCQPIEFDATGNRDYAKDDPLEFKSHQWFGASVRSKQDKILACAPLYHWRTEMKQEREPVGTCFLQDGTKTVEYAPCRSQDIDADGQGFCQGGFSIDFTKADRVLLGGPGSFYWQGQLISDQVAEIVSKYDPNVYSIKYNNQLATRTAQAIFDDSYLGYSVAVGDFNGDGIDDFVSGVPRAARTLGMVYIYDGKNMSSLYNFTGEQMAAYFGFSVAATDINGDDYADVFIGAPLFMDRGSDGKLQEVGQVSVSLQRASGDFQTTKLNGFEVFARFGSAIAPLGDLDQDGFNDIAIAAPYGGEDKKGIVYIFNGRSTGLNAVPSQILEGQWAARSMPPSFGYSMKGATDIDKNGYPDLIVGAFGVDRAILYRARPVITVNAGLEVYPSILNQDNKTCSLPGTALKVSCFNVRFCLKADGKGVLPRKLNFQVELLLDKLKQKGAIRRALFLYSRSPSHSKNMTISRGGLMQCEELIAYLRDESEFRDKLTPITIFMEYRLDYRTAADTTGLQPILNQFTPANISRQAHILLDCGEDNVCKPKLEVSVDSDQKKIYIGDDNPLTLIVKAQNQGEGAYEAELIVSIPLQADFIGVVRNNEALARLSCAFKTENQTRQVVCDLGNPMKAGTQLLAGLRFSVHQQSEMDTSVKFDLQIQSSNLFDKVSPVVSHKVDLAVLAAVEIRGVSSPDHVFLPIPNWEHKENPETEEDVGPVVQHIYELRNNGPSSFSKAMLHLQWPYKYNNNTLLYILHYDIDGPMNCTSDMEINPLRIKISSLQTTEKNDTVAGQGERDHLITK
# Sequence (P06756 891-1048 partner limits assumed): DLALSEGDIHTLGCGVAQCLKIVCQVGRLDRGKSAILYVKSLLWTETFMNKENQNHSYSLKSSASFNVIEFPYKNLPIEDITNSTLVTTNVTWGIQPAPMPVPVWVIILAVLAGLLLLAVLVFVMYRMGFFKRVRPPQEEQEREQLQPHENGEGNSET
# Sequence (P05106 27-788): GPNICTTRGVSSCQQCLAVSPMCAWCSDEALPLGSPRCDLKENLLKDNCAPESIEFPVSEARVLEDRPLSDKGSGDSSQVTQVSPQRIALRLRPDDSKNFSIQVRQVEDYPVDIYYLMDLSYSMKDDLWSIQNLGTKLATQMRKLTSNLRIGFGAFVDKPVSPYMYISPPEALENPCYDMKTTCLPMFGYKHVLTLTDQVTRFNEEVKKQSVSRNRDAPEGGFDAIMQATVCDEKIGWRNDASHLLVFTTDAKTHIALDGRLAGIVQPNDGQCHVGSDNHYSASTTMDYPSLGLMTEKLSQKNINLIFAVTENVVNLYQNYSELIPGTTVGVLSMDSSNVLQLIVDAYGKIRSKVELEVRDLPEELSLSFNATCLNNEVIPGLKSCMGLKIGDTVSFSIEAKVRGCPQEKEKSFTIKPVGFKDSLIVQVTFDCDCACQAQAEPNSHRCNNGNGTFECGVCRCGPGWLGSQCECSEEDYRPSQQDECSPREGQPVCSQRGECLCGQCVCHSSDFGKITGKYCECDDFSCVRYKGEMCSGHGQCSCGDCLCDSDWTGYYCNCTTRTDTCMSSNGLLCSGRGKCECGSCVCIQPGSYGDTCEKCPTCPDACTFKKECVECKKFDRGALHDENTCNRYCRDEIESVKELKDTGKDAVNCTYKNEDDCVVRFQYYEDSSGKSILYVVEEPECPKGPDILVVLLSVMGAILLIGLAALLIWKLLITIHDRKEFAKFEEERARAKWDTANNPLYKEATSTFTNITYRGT
# experiment-description: αv/β3-Biotinylated Vitronectin Binding Assay
# experimental-setup: inhibition of vitronectin binding to purified αv/β3
pIC50: −log10 of the molar value. Non-standard residues stand in square brackets, D forms with d. Residues, ends and D or L forms follow the SMILES beside them. 3Amb = NCc1cccc(C(=O)O)c1
reported-endpoint: pIC50

| compound | target-or-system | reported-endpoint | number |
| --- | --- | --- | --- |
| N=C(N)NCCC[C@@H]1NC(=O)[C@H](CCCCN)NC(=O)c2cccc(c2)CNC(=O)[C@H](CC(=O)O)NC(=O)CNC1=O [Compound D, cyclo-(Lys-Arg-Gly-Asp-Mamb)] (cyclo(RGD[3Amb]K)) | αv /β3 receptor (Homo sapiens, UniProt P05106+P06756) | pIC50 | 8.72 |
| N=C(N)NCCC[C@@H]1NC(=O)[C@@H]2CCCN2C(=O)c2cccc(c2)CNC(=O)[C@H](CC(=O)O)NC(=O)CNC1=O [Compound B, cyclo-(Pro-Arg-Gly-Asp-Mamb)] (cyclo(RGD[3Amb]P)) | αv /β3 receptor (Homo sapiens, UniProt P05106+P06756) | pIC50 | 9.15 |
| C[C@@H]1NC(=O)c2cccc(c2)CNC(=O)[C@H](CC(=O)O)NC(=O)CNC(=O)[C@H](CCCNC(=N)N)NC1=O [Compound A, cyclo-(Ala-Arg-Gly-Asp-Mamb)] (cyclo(RGD[3Amb]A)) | αv /β3 receptor (Homo sapiens, UniProt P05106+P06756) | pIC50 | 8.42 |
| CC(C)C[C@@H]1NC(=O)c2cccc(c2)CNC(=O)[C@H](CC(=O)O)NC(=O)CNC(=O)[C@H](CCCNC(=N)N)NC1=O [Compound E, cyclo-(Leu-Arg-Gly-Asp-Mamb)] (cyclo(RGD[3Amb]L)) | αv /β3 receptor (Homo sapiens, UniProt P05106+P06756) | pIC50 | 8.85 |

Just for reference, patent US6056958A is where these values come from.
